- Test system: Saccharomyces cerevisiae
- protocol.text: protein stability index of tFT-peptide fusion (C-terminal peptide) (PSI (0-1 scale)); higher = more stable (slower turnover)
- condition: genetic background: wild type; temperature: 30 C
Field: protein stability index. Provide a value for each of the sequences that follow.
Give bare numbers.

Worked cases, protein stability index given:
• PFSPPPSTQPSY = 0.754
• PSGDYVVLTTVS = 0.69
• ESQKKEKTKPKN = 0.655

Quick one: give me protein stability index for each item below, same order please.
1. FMSAGVSWIFFV
2. FLNRDGFETLFC
3. SSVGLRTRRTAR
4. DVRSGRAVVGGW
5. PLHSTPRPPAPG

1. 0.343
2. 0.686
3. 0.638
4. 0.63
5. 0.706

Give protein stability index for each of the items listed below.
1. GCVDRSSHNALC
2. ASPPAYCPPPPP
3. GWGVGGKVGQAG
4. PPLPPLPSPLPL
5. PPAAPPPQPHLT

1: 0.632; 2: 0.666; 3: 0.681; 4: 0.674; 5: 0.696

State the recorded protein stability index for every item in the following list.
1. GFLRTVHFLLLG
2. KDSSRHSPDPSR
3. FRDPPSILTSDT
4. GGEGAAWAGGVG
5. LILRVLFLFEPC
6. TMEKKAKKRIKK
7. RSSPPHLPPPSL
8. PPSPPRPPTSFL

1: 0.354; 2: 0.715; 3: 0.621; 4: 0.558; 5: 0.42; 6: 0.682; 7: 0.68; 8: 0.608

====

So I've got a bunch of sequences here, and I need their protein stability index values.
- Tested on: Saccharomyces cerevisiae;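 also: PSI is a weighted mean of sequencing reads over stability bins, variants kept only with over 10 reads, mCherry proximal and sfGFP distal, peptide attached via GGGS linker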
- protocol.text: protein stability index of tFT-peptide fusion (C-terminal peptide) (PSI (0-1 scale)); higher = more stable (slower turnover)
- condition: genetic background: wild type; temperature: 30 C

Example entries begin here.
- RSFAGTTRIRLG: 0.739
- PHPSPRGTPCPT: 0.646
- DPGTNGGCAPPV: 0.676
- LLLLRSPPPTPP: 0.672

Each sequence below has a reported value. Please supply its protein stability index.
1. GAHVAVFRQRGR
2. VCFFSSSCFLLV
3. GAICCFCCYLVF
4. PPSPPPPPPPTP
5. AGLRRLRDFGSN
6. AVVVCGGGGWWA

1: 0.678; 2: 0.47; 3: 0.514; 4: 0.699; 5: 0.726; 6: 0.687

I have 7 sequences here; please give me protein stability index for each one.
1. FFSFFLSFRLWF
2. GQPLAEKFGEFV
3. GLRPPGLRLGSL
4. KMGGKRTKKIGQ
5. GLGKFSALSLVV
6. LFPPPPPSPRCL
7. GGFGEFTWAEAA

[0.449, 0.623, 0.648, 0.694, 0.658, 0.637, 0.768]

Please state, for each entry, its recorded protein stability index.
1. LPPLPLPPAPSA
2. IVWVSSFVCRSV
3. TVLKCECEYFLH
4. EARMGVGRCGTG
5. LWLVSLLVLWLT
6. PPVPRSPPPRRS

0.621
0.43
0.654
0.661
0.316
0.719

Batch: protein stability index for all items listed.
1. DERVSAQDFLEG
2. MLGGGGGVRVLG

0.687
0.706
